Test: in vitro
Type: in vitro ADME
Conditions: rat, plasma
Ends that are not written are not given here.
propertyName: half-life at 10 µg/mL
Reply with a number, then the unit it belongs to.

Could you tell me which half-life at 10 µg/mL is on file for YVKLWRMIKFIRRKDVY [YTP] ?
2 h
